# Test system: K562 cells
# protocol.description: Cell viability, Cell Titer Glo 2.0 assay, K562
# run.parameters: 72 hours
endpoint: Effect on Cell Viability, K562

Observe how each entry below is paired with its result.
C[C@H]1CN(c2cnc3nc(-c4cc(F)c5nn(C)cc5c4)cc(Cl)c3c2)C[C@H](C)N1
A (<100 nM)
C[C@@H]1CN(c2cnc3nc(-c4cc(C#N)c5nn(C)cc5c4)cc(Cl)c3c2)C[C@H](C)N1 [Compound 325, 2,2,2-trifluoroacetate]
C (1000-9999 nM)
CN(C)[C@@H]1CCN(c2cnc3nc(-c4cc5cn(C)nc5c(F)c4O)cc(Cl)c3c2)C1
A (<100 nM)
C[C@H]1CN(c2cnc3nc(-c4cc5cn(C)nc5c(F)c4O)cc(Cl)c3c2)C[C@H](C)N1
A (<100 nM)
CN[C@H]1CCN(c2cnc3nc(-c4cc(C)c5nc(C)cn5n4)ccc3c2)C1
A (<100 nM)

Effect on Cell Viability, K562 recorded for this molecule, CN[C@@H]1CCN(c2cnc3nc(-c4cc(C)c5nc(C)cn5n4)ccc3c2)C1 , is B (100-1000 nM)

Effect on Cell Viability, K562 recorded for this molecule, Cc1cn2nc(-c3cc(Cl)c4cc(N5CCC(N(C)C)CC5)cnc4n3)cc(C)c2n1 , is B (100-1000 nM)

Effect on Cell Viability, K562 recorded for this molecule, Cc1cn2cc(-c3cc(Cl)c4cc(N5C[C@@H](C)N[C@@H](C)C5)cnc4n3)cc(F)c2n1 , is B (100-1000 nM)

Effect on Cell Viability, K562 recorded for this molecule, Cc1c(O)c(-c2cc(Cl)c3cc(N(C)C4CCNC4)cnc3n2)cc2cn(C)nc12 (centres unmarked) , is B (100-1000 nM)

Effect on Cell Viability, K562 recorded for this molecule, Cc1c(O)c(-c2ccc3cc(N4CCNCC4)cnc3n2)cc2cn(C)nc12 , is B (100-1000 nM)

# credit: patent US20250326748A1
